Overview of recorded median fluorescence fold over isotype control for various binders
Target Entity: SARS-CoV-2 full length spike protein, D614G mutant, expressed on CHO cells (SARS-CoV-2, UniProt P0DTC2 14-1273)
Readout Type: median fluorescence fold over isotype control (fold over isotype)

Binder	Observed
antibody 394 (antibody, V domains shown) VH: QVQLVQSGAEVKKPGASVKVSCKASGYTFTGYYMHWVRQAPGQGLEWMGWINPNNGGTNSAQKFQGRVTMTRDTSISTAYMELNRLRSDDTAVYYCARDITTTAGTDYYYGMDVWGQGTTVTVSS VL: SYELTQPPSVSVSPGQTARITCSGDALPKQYAYWYQQKPGQAPVLVICKDSERPSGIPERFSGSSSGTTVTLTISGVQAEDEADYYCQSADSSGTYIVFGTGTKVTVL	63.4
antibody 368 (antibody, V domains shown) V domain 1: QITLKESGPTLVKPTETLTLTCAFSGFSLTKTGEAAGWIRQAPGRALEWVTVIFWDDDKRYSPSLQNRLTVTKDTSKNVVVLTMTNVDPVDTATYFCWAMGGPGKEFFGQGTRVAVSS V domain 2: QSVLTQPPSVSGAPGQRVTVSCTGTSSSIGPYSDVHWYQHIPGKAPRLLIFGTSNRPSGVPARFSGSKSGSSASLVIAGLQAEDEADYYCQSYDSSLGEIYVFGTGTTVTVL	64.3
antibody 397 (antibody, V domains shown) VH: QVQLVESGGGVVQPGRSLRLSCAASGFTFSSYGMHWVRQAPGKGLESVAVISYDGSNKYYADSVKGRFTISRDNSKNTLYLQMNSLRAEDTAVYYCAKEGQWELQGNAFDIWGQGTMVTVSS VL: SYELTQPPSVSVSPGQTARITCSGDALPKQYAYWYQQKPGQAPVLVIYKDSERPSGIPERFSGSSSGTTVTLTISGVQAEDEADYYCQSGDSSGTYRVFGGGTKLTVL	7.97
